# Test system: Escherichia coli
# measurement description: Antibacterial activity against Escherichia coli DH5[alpha] at 5 to 20 ug/ml after 24 hr by paper disk diffusion method
# Format: functional
measured attribute: diameter of the inhibition zone (DIZ)

Reference set, count: 5
Nn1c(Sc2ccc(Cl)cc2)nnc1-c1ccccc1 16 mm
Nn1c(Sc2ccc(C(Cl)(Cl)Cl)cc2)nnc1-c1ccccc1 14 mm
Nn1c(Sc2ccc(S(=O)(=O)Cl)cc2)nnc1-c1ccccc1 <10 mm
Nn1c(S)nnc1-c1ccccc1 16 mm
Nn1c(S)nnc1-c1ccccc1O 16 mm

Param readout= diameter of the inhibition zone (DIZ); system= Escherichia coli; entry= "Nn1c(Sc2ccc(Br)cc2)nnc1-c1ccccc1" ; returns value.
16 mm

Param readout= diameter of the inhibition zone (DIZ); system= Escherichia coli; entry= "Nn1c(Sc2ccc([N+](=O)[O-])cc2[N+](=O)[O-])nnc1-c1ccccc1" ; returns value.
<10 mm

Param readout= diameter of the inhibition zone (DIZ); system= Escherichia coli; entry= "CC(=O)Nn1c(S)nnc1-c1ccccc1" ; returns value.
<10 mm

Param readout= diameter of the inhibition zone (DIZ); system= Escherichia coli; entry= "CO/N=C(\C(=O)N[C@@H]1C(=O)N2C(C(=O)O)=C(CSc3nc(=O)c(O)nn3C)CS[C@H]12)c1csc(N)n1" ; returns value.
16 mm
